Assignment: determine reported IC50 for the given compounds.
Test system: 439559-082-T-J2-PDC complex spheroid growth;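 further: spheroids exposed to agents for 7 days starting day 3 after seeding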
Experiment: Anticancer human tumor 439559-082-T-J2-PDC patient-derived colon adenocarcinoma cell line growth inhibition [Asc]
Settings: curve of first compound; second compound 1 µM
Description: Multicellular complex tumor spheroid response to apoptosis pathway targeting inhibitors Alrizomadlin, Pelcitoclax, and Dasminapant in combination with a variety of drugs and investigational agents in selected tumor cell lines […] Compounds. […] If the clinical Cmax for an agent had not been determined, the highest concentration tested was 10 microM. […]

So, CCN1CCN(Cc2ccc(Nc3ncc(F)c(-c4cc(F)c5nc(C)n(C(C)C)c5c4)n3)nc2)CC1 + CNC(C)C(=O)NC1CN(S(=O)(=O)c2cccc(S(=O)(=O)N3CCC4CCC(C(=O)NC(c5ccccc5)c5ccccc5)N4C(=O)C(NC(=O)C(C)NC)C3)c2)CCC2CCC(C(=O)NC(c3ccccc3)c3ccccc3)N2C1=O ? Its IC50 was > 1000 nM

So, O=C(c1ccc(F)c(F)c1Nc1ccc(I)cc1F)N1CC(O)([C@@H]2CCCCN2)C1 + Cc1c(S(C)(=O)=O)c(-c2cc(F)cc(N3CCN(c4ccc(NS(=O)(=O)c5ccc(NC(CCN6CCC(C(=O)OCCCP(=O)(O)O)CC6)CSc6ccccc6)c(S(=O)(=O)C(F)(F)F)c5)cc4)CC3)c2)c(-c2ccc(Cl)cc2)n1C(C)C ? Its IC50 was 141 nM

So, CCN1C(C(=O)NC23CCC(C(=O)O)(CC2)CC3)C(c2cccc(Cl)c2F)C2(C(=O)Nc3cc(Cl)ccc32)C12CCCCC2 (configuration not stated) + CNC(C)C(=O)NC1CN(S(=O)(=O)c2cccc(S(=O)(=O)N3CCC4CCC(C(=O)NC(c5ccccc5)c5ccccc5)N4C(=O)C(NC(=O)C(C)NC)C3)c2)CCC2CCC(C(=O)NC(c3ccccc3)c3ccccc3)N2C1=O ? Its IC50 was > 3000 nM

So, NC1CCC(NC2CC2c2ccccc2)CC1 (configuration not stated) + CNC(C)C(=O)NC1CN(S(=O)(=O)c2cccc(S(=O)(=O)N3CCC4CCC(C(=O)NC(c5ccccc5)c5ccccc5)N4C(=O)C(NC(=O)C(C)NC)C3)c2)CCC2CCC(C(=O)NC(c3ccccc3)c3ccccc3)N2C1=O ? Its IC50 was > 100 nM

So, Cc1nc(N2CCC3(CC2)COC(C)C3N)c(CO)nc1Sc1ccnc(N)c1Cl (configuration not stated) + Cc1c(S(C)(=O)=O)c(-c2cc(F)cc(N3CCN(c4ccc(NS(=O)(=O)c5ccc(NC(CCN6CCC(C(=O)OCCCP(=O)(O)O)CC6)CSc6ccccc6)c(S(=O)(=O)C(F)(F)F)c5)cc4)CC3)c2)c(-c2ccc(Cl)cc2)n1C(C)C ? Its IC50 was > 3000 nM

# batch: return IC50 for each of the 2 compounds below
1. NC1CCC(NC2CC2c2ccccc2)CC1 (configuration not stated) + Cc1c(S(C)(=O)=O)c(-c2cc(F)cc(N3CCN(c4ccc(NS(=O)(=O)c5ccc(NC(CCN6CCC(C(=O)OCCCP(=O)(O)O)CC6)CSc6ccccc6)c(S(=O)(=O)C(F)(F)F)c5)cc4)CC3)c2)c(-c2ccc(Cl)cc2)n1C(C)C
2. Cn1ncnc1[C@H]1c2n[nH]c(=O)c3cc(F)cc(c23)N[C@@H]1c1ccc(F)cc1 + Cc1c(S(C)(=O)=O)c(-c2cc(F)cc(N3CCN(c4ccc(NS(=O)(=O)c5ccc(NC(CCN6CCC(C(=O)OCCCP(=O)(O)O)CC6)CSc6ccccc6)c(S(=O)(=O)C(F)(F)F)c5)cc4)CC3)c2)c(-c2ccc(Cl)cc2)n1C(C)C

Response given:
1. > 100 nM
2. > 100 nM
